Source: PubChem BioAssay (NCATS)

# Test system: C33A
# Assay Comment: Primary qHTS to identify gynecologic anti-cancer compounds using libraries of approved drugs and bioactive compounds (AID 1345084); further: on the % scale 0 is the no-effect control and ±100 the full control effect; nearly all actives have a fitted effect of over 55% in size
# Reported Conditions: Gynecologic cancer cell panel viability, ATPlite luminescence, 48 h; series mostly up to 57.5 µM
Results filed as inconclusive are left out. Calls of active or inactive are those of the source. The call rests on the fitted dose curve; in most records, active means well fitted cell-killing curve with a large enough effect; inconclusive means small, poorly fitted or top-dose-only effect, or effect the other way; inactive means flat fitted curve, though single readings scatter.
Quantity Kind: activity change, negative = cytotoxicity

>>> endpoint_value("Cc1nc2ccc(Oc3ccc(F)cc3)cc2c(=O)n1C[C@H]1CCCN(C(C)C)C1")
"inactive"
>>> endpoint_value("CC(C)C(C#N)O[C@@H]1O[C@H](CO[C@@H]2O[C@@H](C)[C@H](O)[C@@H](O)[C@H]2O)[C@@H](O)[C@H](O)[C@H]1O (stereo partly specified)")
"inactive"
>>> endpoint_value("CC1=C2C(O)C(=O)OC(c3ccoc3)C2(C)CCC1O (stereo unspecified)")
"inactive"
>>> endpoint_value("CC(=O)O[C@@H]1[C@H](O[C@@H]2O[C@@H](CO)[C@H](O)[C@H]2O)[C@@H](O[C@@H]2O[C@@H](C)[C@H](O[C@@H]3OC[C@@H](O)[C@H](O)[C@H]3O)[C@@H](O)[C@H]2O)[C@H](OC(=O)[C@]23CCC(C)(C)C[C@H]2C2=CCC4[C@@]5(C)CC[C@H](O[C@@H]6O[C@H](C(=O)O)[C@@H](O)[C@H](O)[C@H]6O[C@@H]6O[C@H](CO)[C@H](O)[C@H](O)[C@H]6O)[C@@](C)(C=O)C5CC[C@@]4(C)[C@]2(C)CC3)O[C@@H]1C (stereo partly specified)")
"4.84% [at 6.55 µM] (inactive)"
>>> endpoint_value("CC(=O)/C=C/[C@H]1[C@](C)(O)[C@@H](O)[C@H](OC(C)=O)C2C(C)(C)CCC[C@@]21C (stereo partly specified)")
"inactive"
>>> endpoint_value("N#Cc1cc(F)cc(-c2nc(-c3ccccn3)no2)c1")
"inactive"
